# Assay details: Toxicity liver stage against HepG2, at 10uM
# Type: cell-based
# Parameters: test concentration 10 uM, cell line HepG2-A16-CD81EGFP
# Condition summary: human, HepG2-A16-CD81EGFP cells; read-out: INHIBITION
Reported cytotoxicity at 10 µM is given for each of the following compounds.

Worked cases, cytotoxicity at 10 µM given:
Cc1nc(NC2CCCC2)cc(C2CCN2C(=O)c2cnn(C)c2)n1 (centres undefined)	8.89%
CCN1CCC2(CC1)CC(NCc1ccncc1)c1ccccc1O2 (centres undefined)	0.254%
CC(C)CN1CCCn2nc(CNC(=O)OCc3ccccc3)cc2C1	1.04%

Look at this compound and give its reported cytotoxicity at 10 µM. Cc1cncc(Oc2ccc(CO)cc2)n1
5.81%

Look at this compound and give its reported cytotoxicity at 10 µM. Cc1noc(-c2ccnc(Oc3ccc(CN4CCCC4)cc3C)c2)n1
51.4%

Look at this compound and give its reported cytotoxicity at 10 µM. CC(C)c1noc(CCCC(=O)N2CCN(Cc3ccsc3)CC2)n1
-5.19%

Look at this compound and give its reported cytotoxicity at 10 µM. CC(C)c1ccc(CNC(C)c2ccc(S(=O)(=O)N(C)C)cc2)cc1 (centres undefined)
32.6%

Look at this compound and give its reported cytotoxicity at 10 µM. CCN1CCN(C(=O)CCc2c(C)noc2Cl)CC1
-4.37%

###

# Assay details: Toxicity liver stage against HepG2, at 10uM
# Type: cell-based
# Design: test concentration 10 uM, cell line HepG2-A16-CD81EGFP
# Condition summary: human, HepG2-A16-CD81EGFP cells; read-out: INHIBITION
Measure name: cytotoxicity at 10 µM (%)
State the answer as a number, implicitly in %.

Look at this compound and give its reported cytotoxicity at 10 µM. CCOc1cc(Cl)ccc1CNC(=O)N(C)CC(C)(C)O
-0.538

Look at this compound and give its reported cytotoxicity at 10 µM. CS(=O)(=O)NCC1CCCN(C(=O)COCc2ccccc2)C1 (centres undefined)
-7.59

Look at this compound and give its reported cytotoxicity at 10 µM. CNc1cc(C)nc(N2CCC3(CC2)[C@H](O)C[C@@H]3OCCN(C)C)n1
-1.26

Look at this compound and give its reported cytotoxicity at 10 µM. COc1ccc(OCc2nc(C(=O)N3C[C@H](O)[C@@H](N(C)C)C3)co2)cc1
-1.74

Look at this compound and give its reported cytotoxicity at 10 µM. Cn1ncc2c(NC3CN4CCC3CC4)nc(-c3ccncc3)nc21 (centres undefined)
41.1

###

Reported cytotoxicity at 10 µM is given for each of the following compounds.
# Assay details: Toxicity liver stage against HepG2, at 10uM
# Assay type: cell-based
# Design: test concentration 10 uM, cell line HepG2-A16-CD81EGFP
# Condition summary: human, HepG2-A16-CD81EGFP cells; read-out: INHIBITION
State the answer as a number, implicitly in %.

Look at this compound and give its reported cytotoxicity at 10 µM. Cc1nnc(N2CCC(CCn3ccnc3C)CC2)o1
-8.14

Look at this compound and give its reported cytotoxicity at 10 µM. O=C(NCC1(COc2cnccn2)C[C@@H](O)[C@@H](O)C1)C1CC1 (stereo partly specified)
7.92

Look at this compound and give its reported cytotoxicity at 10 µM. Cc1ncc2c(n1)CN(Cc1nc(-c3ccco3)oc1C)CC2
2.2

Look at this compound and give its reported cytotoxicity at 10 µM. O=C([C@@H]1CCO[C@@H]2CCN(Cc3ccc(F)cc3)C[C@H]21)N1CCCCO1
11.9

Look at this compound and give its reported cytotoxicity at 10 µM. Cc1ccc(-c2cc(C(=O)N(C)Cc3noc4c3CCCC4)[nH]n2)o1
-11

Look at this compound and give its reported cytotoxicity at 10 µM. Cc1nn(C)c(C)c1C(=O)N1CCOCC1CC(=O)c1ccco1 (stereo unspecified)
-11.4

Look at this compound and give its reported cytotoxicity at 10 µM. Cc1nn(C)c(C)c1C1CCCN1C(=O)c1ccnc(N(C)C)c1 (stereo unspecified)
-5.42

Look at this compound and give its reported cytotoxicity at 10 µM. CC(C)(C)CN(CCC#N)C(=O)Cc1ccc(-n2cnnn2)cc1
1.18

Look at this compound and give its reported cytotoxicity at 10 µM. O=C([C@@H]1COC[C@H]2CN(C3CCOCC3)C[C@H]21)N1CCCO1
-3.2

Look at this compound and give its reported cytotoxicity at 10 µM. O=C(Cc1cccs1)N1CCC2(CC1)COCCN2CC1CC1
4.98

Look at this compound and give its reported cytotoxicity at 10 µM. CC(C)Cn1cnnc1C1CCCN1C(=O)c1ccc(F)cc1F (stereo unspecified)
-2.01
